Data origin, for the record: paper PMC7948503

system_under_test: T1, Rluc-ADGRG2-ΔGPS-β F826A (mouse, UniProt Q8CJ12-3 38-995, F826A)
T1 construct: ADGRG2 (GPR64), mouse, ADGRG2-ΔGPS-β: the entire ECD removed; source: HEK293, transfected, on cells; not shown: Rluc, N-terminal, kept
protocol: FRET or BRET; HEK293 cells transfected with Rluc-ADGRG2-ΔGPS-β WT or mutants, stimulated by increasing concentrations of FITC-conjugated VPM-p15; saturation curves fitted with GraphPad; each experiment repeated 6 times
condition_label: one partner purified
Non-standard residues stand in square brackets, D forms with d. Primed or numbered codes have the meaning given here. No end group written: not given here. Phe(4-Me) = Cc1ccc(C[C@H](N)C(=O)O)cc1; FITC′ = not defined here
measured_parameter: pEC50
Reminder that pEC50 means the negative base-10 logarithm of the concentration expressed in mol/L.

Value of pEC50 reported for the binder VS[Phe(4-Me)]GILLDLSRTSLP-{FITC′} [FITC-conjugated VPM-p15 (ADGRG2 Stachel peptide p15 T1V/F3Phe(4-Me))] is 5.93
